pKi: −log10 of the molar value.
Compiled pKi measurements on Coagulation factor X (Homo sapiens, UniProt P00742) taken from the literature.

What pKi appears in the records for this compound with Coagulation factor X (Homo sapiens, UniProt P00742)? CC1(C)C2CC3OB([C@H](CCCCN)NC(=O)c4cnc(-c5ccccc5)nc4-c4ccccc4)OC3(C)C1C2 (single isomer, unassigned) 4.30 to 6.30

Provide the documented pKi with Coagulation factor X (Homo sapiens, UniProt P00742) as the system for `CC(C)N1CCC(NC(=O)c2cc(C(=O)NCC(=O)O)nn2Cc2cc(-c3ccc(Cl)s3)on2)CC1` 7.09

Write down the reported pKi of `NC(=O)c1nn(-c2ccc(Cl)cc2)c2c1CCN(C1CCN(N3CCOCC3=O)CC1)C2=O` , test system: Coagulation factor X (Homo sapiens, UniProt P00742). 7.30 to 8.00

Request: pKi, test system Coagulation factor X (Homo sapiens, UniProt P00742), entry `C/C(=C\S(=O)(=O)N(Cc1ccccn1)[C@H]1CCN(c2ccc(C(=O)N(C)C)cc2F)C1=O)c1ccc(Cl)s1` > 8.00

Report pKi for `CC1(C)[C@@H]2C[C@H]3OB([C@H](CCCNC(=N)N)NC(=O)c4ccc(-c5ccccc5)c(N)c4)O[C@@]3(C)[C@H]1C2` tested on Coagulation factor X (Homo sapiens, UniProt P00742). > 6.30

----------
Several publications report Ki on Coagulation factor X (Homo sapiens); those values are gathered here.

Record request: Ki value, item `COc1ccc(-n2nc(C(F)(F)F)c3c2C(=O)N(C2CCN(N4CCCCC4=O)CC2)CC3)cc1` ≤ 10 nM

Recorded Ki for `COCCN([C@H]1CCN(c2ccc(C(=O)N(C)C)cc2F)C1=O)S(=O)(=O)/C=C(\C)c1ccc(Cl)s1` , please? < 10 nM

Reported Ki for CC(=O)NC(Cc1ccccc1)C(=O)N1CCCC1C(=O)NC(Cc1cccc(C#N)c1)B1OC2CC3CC(C3(C)C)C2(C)O1 (stereo not drawn) : what is it? < 50000 nM

----------
Several reports have described Ki for Coagulation factor X (Homo sapiens); a selection of those results is presented here.
Respond with the bare value in nM.

I'm curious: which Ki was measured for `CC(C)N1CCC(NC(=O)c2nn(Cc3cc(-c4ccc(Cl)s4)on3)cc2C#N)CC1` tested on Coagulation factor X (Homo sapiens)? 144

Hello, I am looking for reported Ki with Coagulation factor X (Homo sapiens) for `O=C(CCNC(=O)c1ccc(Cl)s1)Nc1ccc(-n2ccccc2=O)cc1C(=O)O` . Could you help? 11

What measured Ki is associated with `CC(C)N1CCC(NC(=O)c2cc(C(=O)O)n(Cc3cc(-c4ccc(Cl)s4)on3)c2)CC1` on Coagulation factor X (Homo sapiens)? 8990

----------
Let's look at some Ki data for Coagulation factor X (Homo sapiens) that I collected from the literature.
Please respond with the number in nM and leave the unit unwritten.

Hello, I am looking for reported Ki with Coagulation factor X (Homo sapiens) for `Cc1nc(-c2ccccc2)n(Cc2cc(-c3ccc(Cl)s3)on2)c1C(=O)NC1CCN(C(C)C)CC1` . Could you help? 7

# returns recorded Ki (system: Coagulation factor X (Homo sapiens)) for `CC(C)N1CCC(NC(=O)c2cc(-c3ccc(Cl)s3)n(Cc3cc(-c4ccc(Cl)s4)on3)n2)CC1` 491

Lab note: need Ki with Coagulation factor X (Homo sapiens) for entry `CC(C)N1CCC(NC(=O)c2c(C#N)cnn2CC(=O)Nc2ccc(Cl)cc2)CC1` , please look it up. 410

Entry `CCc1nc(C)c(C(=O)NC2CCN(C(C)C)CC2)n1Cc1cc(-c2ccc(Cl)s2)on1` , system Coagulation factor X (Homo sapiens): what Ki was measured? 27

Missing value: Ki, Coagulation factor X (Homo sapiens), entry `O=C(O)c1ccc2c(cc(C(=O)NC3CCN(c4ccncc4)CC3)n2Cc2cc(-c3ccc(Cl)s3)on2)n1` . Fill in? 85

Requested read-out Ki, target or system Coagulation factor X (Homo sapiens), entry `CN(C(=O)CC[C@@H](NS(=O)(=O)Cc1ccccc1)C(=O)N1CCC[C@H]1C(=O)NCc1cc(Cl)ccc1CN)C1CCOCC1` 6.9

// fetch Coagulation factor X (Homo sapiens) Ki for `CC(C)N1CCC(NC(=O)c2cnc(C3CC3)n2Cc2cc(-c3ccc(Cl)s3)on2)CC1` 4

// lookup Ki | system=Coagulation factor X (Homo sapiens) | key= `CC(C)N1CCC(NC(=O)c2nn(Cc3cc(-c4ccc(Cl)s4)on3)c3ccc(C(=O)N4CCC4)cc23)CC1` 5

Enter reported Ki observed with Coagulation factor X (Homo sapiens) for `Cc1nc(I)n(Cc2cc(-c3ccc(Cl)s3)on2)c1C(=O)NC1CCN(C(C)C)CC1` 1

So what Ki did `CCOC(=O)c1cc(C(=O)NC2CCN(C(C)C)CC2)n(Cc2cc(-c3ccc(Cl)s3)on2)n1` get with Coagulation factor X (Homo sapiens)? 144

Entry `NCc1ccc(Cl)cc1CNC(=O)[C@@H]1CCCN1C(=O)[C@@H](CCC(=O)N1CCC(N)CC1)NS(=O)(=O)Cc1ccccc1` , system Coagulation factor X (Homo sapiens): what Ki was measured? 33

----------
Several reports have described Ki for Coagulation factor X (Homo sapiens, UniProt P00742); a selection of those results is presented here.
Mark met only when Ki stays strictly below 10 nM. Values equal to the cut-off are not met.

Regarding `NCc1ccc(Cl)cc1CNC(=O)[C@@H]1CCCCN1C(=O)[C@@H](CCC(=O)N1CCOCC1)NS(=O)(=O)Cc1ccccc1` , kindly confirm whether its Ki is beneath 10 nM. met

Given the entry NC(N)=Nc1ccc(C(=O)N(Cc2ccc(O)cc2)C2CCN(S(=O)(=O)/C=C/c3ccc(Cl)cc3)C2)cc1 (stereo not shown) , would its reported Ki be below 10 nM? not met

Strictly below 10 nM: is that where Ki of `NCc1ccc(Cl)cc1CNC(=O)[C@@H]1CCCN1C(=O)[C@@H](CC(=O)N1CCCCC1)NS(=O)(=O)Cc1ccccc1` sits? met

Does this molecule meet the criterion Ki < 10 nM? `CC(C)N1CCC(NC(=O)c2nn(CC(=O)Nc3ccc(Cl)cn3)c3ccccc23)CC1` not met

Does the reported Ki of `CC(C)N1CCC(NC(=O)c2c(C#N)c(-c3cccs3)nn2Cc2cc(-c3ccc(Cl)s3)on2)CC1` stay below 10 nM? not met

----------
Please find below log10 Ki measurements for Coagulation factor X (Homo sapiens, UniProt P00742), combined from several publications.
Field: value | Transform: log10 | Quantity: Ki | Unit: nM

Notebook: pull reported log10 Ki for Coagulation factor X (Homo sapiens, UniProt P00742), entry `CC(C)N1CCC(NC(=O)c2nc3cc(C(=O)OCC(=O)O)ccc3n2Cc2cc(-c3ccc(Cl)s3)on2)CC1` 0.00

Form field - read-out: log10 Ki; system: Coagulation factor X (Homo sapiens, UniProt P00742); submitted item: `CC(C)N1CCC(NC(=O)c2cc(C(=O)OCC3CC3)nn2CC(=O)Nc2ccc(Cl)cn2)CC1` 1.26

For the record `CC(C)N1CCC(NC(=O)c2cc3c(C(=O)N4CC(O)C4)cccc3n2Cc2cc(-c3ccc(Cl)s3)on2)CC1` , what value of log10 Ki is listed for Coagulation factor X (Homo sapiens, UniProt P00742)? 1.15

Fill in the recorded log10 Ki for this compound, with Coagulation factor X (Homo sapiens, UniProt P00742) as test system: `O=C(Nc1ccc(-n2ccncc2=O)cc1)c1nc2ccccc2n1Cc1cc(-c2ccc(Cl)s2)on1` 0.30

Request: log10 Ki, test system Coagulation factor X (Homo sapiens, UniProt P00742), entry `NCc1ccc(Cl)cc1CNC(=O)[C@@H]1CCCN1C(=O)[C@@H](CC(=O)N1CC[C@@H](O)C1)NS(=O)(=O)Cc1ccccc1` 0.40

Notebook entry, Coagulation factor X (Homo sapiens, UniProt P00742) assay: log10 Ki of `C[C@@H]1CCC[C@H](C)N1CCCCCN1C(=O)[C@H](c2cc(C(=N)N)ccc2O)Oc2ccccc21` = ? -1.12

Please state recorded log10 Ki (tested on Coagulation factor X (Homo sapiens, UniProt P00742)) of `CC(C)N1CCC(NC(=O)c2nc3c(C(=O)N(C)CCO)cccc3n2CC(=O)Nc2ccc(Cl)cn2)CC1` 1.19

Form field: log10 Ki recorded for `COCC(=O)N1CCC(CC[C@@H](NS(=O)(=O)Cc2ccccc2)C(=O)N[C@@H](CCC2CCNCC2)C(=O)NCc2ccc(C(=N)N)cc2)CC1` with Coagulation factor X (Homo sapiens, UniProt P00742) (enter value) 3.20

Record lookup: for Coagulation factor X (Homo sapiens, UniProt P00742), what log10 Ki belongs to `Cc1c(CCC(=O)O)c(C)n(Cc2cc(-c3ccc(Cl)s3)on2)c1C(=O)NC1CCN(C(C)C)CC1` ? 2.18

Request body: readout log10 Ki, system Coagulation factor X (Homo sapiens, UniProt P00742), query `N=C(N)c1ccc2nc(-c3ccc(OCC(=O)NCc4cccc5ccccc45)cc3O)[nH]c2c1` . Return the value. 2.66

Which log10 Ki is reported with Coagulation factor X (Homo sapiens, UniProt P00742) for this entry: `COC(=O)c1ccc2c(C(=O)NC3CCN(C(C)C)CC3)nn(Cc3cc(-c4ccc(Cl)s4)on3)c2c1` ? 1.54

Which log10 Ki is reported with Coagulation factor X (Homo sapiens, UniProt P00742) for this entry: `N=C(N)c1cc2cc(-c3cc(CC(=O)N4CCS(=O)(=O)CC4)cc(-c4ccccc4)c3O)[nH]c2cc1Cl` ? 3.73

Could you share what log10 Ki was measured for `COc1cccc(Cn2c(C(=O)NC3CCN(C(C)C)CC3)cc3c(C(=O)N4CC(O)C4)cccc32)c1` , tested on Coagulation factor X (Homo sapiens, UniProt P00742)? 2.09

Form field: log10 Ki recorded for `N=C(N)c1ccc(CNC(=O)[C@H](CCC2CCNCC2)NC(=O)[C@@H](CCC2CCNCC2)NS(=O)(=O)Cc2ccccc2)cc1` with Coagulation factor X (Homo sapiens, UniProt P00742) (enter value) 1.95

Request - read-out log10 Ki | tested on Coagulation factor X (Homo sapiens, UniProt P00742) | compound `CC(C)N1CCC(NC(=O)c2c(-c3ccc(Cl)cc3Cl)cnn2Cc2cc(-c3ccc(Cl)s3)on2)CC1` 2.47

Form field - read-out: log10 Ki; system: Coagulation factor X (Homo sapiens, UniProt P00742); submitted item: `O=C(CCNC(=O)c1ccc(Cl)s1)Nc1ccc(-n2ccncc2=O)cc1` 0.85

Fill in the recorded log10 Ki for this compound, with Coagulation factor X (Homo sapiens, UniProt P00742) as test system: `CC(C)N1CCC(NC(=O)c2nc3cc(C(=O)N4CC(O)C4)ccc3n2CC(=O)Nc2ccc(Cl)cn2)CC1` 1.49

What measured log10 Ki is associated with `COC(=O)c1ccc2c(c1)nc(C(=O)NC1CCN(C(C)C)CC1)n2Cc1cc(-c2ccc(Cl)s2)on1` on Coagulation factor X (Homo sapiens, UniProt P00742)? 0.40
